# experiment.description: Cytotoxicity against Chlorocebus aethiops (African green monkey) Vero cells assessed as cell viability after 3 days by SRB assay
# Assay type: cell-based
# experimental.parameters: chlorocebus sabaeus, Vero cells
measurement.type: CC50 at 72 h (µg/mL)

INSERT INTO measurements (compound, units_text, assay_result) VALUES
  ('COc1cc(C2C(C(=O)Nc3ccc(Cl)cc3)=C(C)NC(C)=C2C(=O)Nc2ccc(Cl)cc2)ccc1O', 'µg/mL', 250),
  ('CC1=C(C(=O)Nc2ccc(Cl)cc2)C(c2ccco2)C(C(=O)Nc2ccc(Cl)cc2)=C(C)N1', 'µg/mL', 24),
  ('COc1ccc(NC(=O)C2=C(C)NC(=O)NC2c2cccc([N+](=O)[O-])c2)cc1 (stereo not given)', 'µg/mL', 64),
  ('COc1ccc(NC(=O)C2=C(C)NC(=O)NC2c2ccc(N(C)C)cc2)cc1 (stereo not given)', 'µg/mL', 236),
  ('CC1=C(C(=O)Nc2ccc(Cl)cc2)C(c2cccc([N+](=O)[O-])c2)C(C(=O)Nc2ccc(Cl)cc2)=C(C)N1', 'µg/mL', 26),
  ('COc1ccc(NC(=O)C2=C(C)NC(=S)NC2c2ccco2)cc1 (stereo not given)', 'µg/mL', 230),
  ('CC1=C(C(=O)Nc2ccc(Cl)cc2)C(c2ccccc2)C(C(=O)Nc2ccc(Cl)cc2)=C(C)N1', 'µg/mL', 15),
  ('COc1ccc(NC(=O)C2=C(C)NC(=O)NC2c2cccc(Cl)c2)cc1 (stereo not given)', 'µg/mL', 254),
  ('COc1ccc(NC(=O)C2=C(C)NC(=S)NC2c2ccccc2)cc1 (stereo not given)', 'µg/mL', 15),
  ('CC1=C(C(=O)Nc2ccc(Cl)cc2)C(c2ccccc2O)C(C(=O)Nc2ccc(Cl)cc2)=C(C)N1', 'µg/mL', 62);

---

Listed below: CC50 at 72 h values for each entry.
# experiment.description: Cytotoxicity against Chlorocebus aethiops (African green monkey) Vero cells assessed as cell viability after 3 days by SRB assay
# Assay type: cell-based
# experimental.parameters: chlorocebus sabaeus, Vero cells
measurement.type: CC50 at 72 h (µg/mL)

INSERT INTO measurements (molecule, assay_result) VALUES
  ('CC1=C(C(=O)Nc2ccc(Cl)cc2)C(c2ccncc2)C(C(=O)Nc2ccc(Cl)cc2)=C(C)N1', 78),
  ('COc1ccc(NC(=O)C2=C(C)NC(=S)NC2c2ccc(N(C)C)cc2)cc1 (stereo not given)', 500),
  ('COc1ccc(NC(=O)C2=C(C)N=C(S)NC2c2ccc(O)c(OC)c2)cc1 (stereo not given)', 8),
  ('COc1ccc(NC(=O)C2=C(C)NC(=S)NC2c2ccc(OC)cc2)cc1 (stereo not given)', 150),
  ('COc1ccc(NC(=O)C2=C(C)NC(=O)NC2/C=C/c2ccccc2)cc1 (stereo not given)', 15),
  ('COc1ccc(NC(=O)C2=C(C)NC(=S)NC2c2cccc([N+](=O)[O-])c2)cc1 (stereo not given)', 80),
  ('CC1=C(C(=O)Nc2ccc(Cl)cc2)C(c2ccc(N(C)C)cc2)C(C(=O)Nc2ccc(Cl)cc2)=C(C)N1', 155),
  ('COc1ccc(C2C(C(=O)Nc3ccc(Cl)cc3)=C(C)NC(C)=C2C(=O)Nc2ccc(Cl)cc2)cc1', 20),
  ('COc1ccc(NC(=O)C2=C(C)NC(=O)NC2c2ccccc2O)cc1 (stereo not given)', 160),
  ('COc1ccc(NC(=O)C2=C(C)NC(=O)NC2c2ccccc2)cc1 (stereo not given)', 225),
  ('CC1=C(C(=O)Nc2ccc(Cl)cc2)C(/C=C/c2ccccc2)C(C(=O)Nc2ccc(Cl)cc2)=C(C)N1', 21),
  ('COc1ccc(NC(=O)C2=C(C)NC(=S)NC2c2cccc(Cl)c2)cc1 (stereo not given)', 270),
  ('COc1ccc(NC(=O)C2=C(C)NC(=O)NC2c2ccco2)cc1 (stereo not given)', 210),
  ('COc1ccc(NC(=O)C2=C(C)NC(=O)NC2)cc1', 200),
  ('COc1ccc(NC(=O)C2=C(C)NC(=O)NC2c2ccc(O)c(OC)c2)cc1 (stereo not given)', 8),
  ('COc1ccc(NC(=O)C2=C(C)NC(=O)NC2c2ccncc2)cc1 (stereo not given)', 10),
  ('COc1ccc(NC(=O)C2=C(C)NC(=S)NC2c2ccccc2O)cc1 (stereo not given)', 246),
  ('COc1ccc(NC(=O)C2=C(C)NC(=O)NC2c2ccc(OC)cc2)cc1 (stereo not given)', 158),
  ('CC1=C(C(=O)Nc2ccc(Cl)cc2)CC(C(=O)Nc2ccc(Cl)cc2)=C(C)N1', 40),
  ('CC1=C(C(=O)Nc2ccc(Cl)cc2)C(c2cccc(Cl)c2)C(C(=O)Nc2ccc(Cl)cc2)=C(C)N1', 12);
